Molecular target: T1, human TL1A extracellular domain with N-terminal HIS and FLAG tag (human, UniProt O95150 72-251)
T1 construct: whole entry named. ~70 kDa fraction purified by gel filtration
T1 sequence: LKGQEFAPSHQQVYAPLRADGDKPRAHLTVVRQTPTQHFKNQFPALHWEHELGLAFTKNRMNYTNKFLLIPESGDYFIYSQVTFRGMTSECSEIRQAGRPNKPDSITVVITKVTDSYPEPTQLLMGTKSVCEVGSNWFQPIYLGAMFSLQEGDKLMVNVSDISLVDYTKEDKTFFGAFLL
Assay: SPR run 1; purified antibody on Protein A; TL1A 10 ug/mL; timepoint 590
ASSAY_READOUT: TL1A Binding Level (Late) (RU)
Value expressed in RU; do not type the unit.

1) 320-191 (antibody, human IgG1, name in Kabat numbering, V domains shown, human IgG1, lambda) VH: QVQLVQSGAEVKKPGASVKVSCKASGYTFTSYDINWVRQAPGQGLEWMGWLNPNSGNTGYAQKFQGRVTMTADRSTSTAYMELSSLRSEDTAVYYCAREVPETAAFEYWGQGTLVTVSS VL: QSVLTQPPSVSGAPGQRVTISCTSSSSDIGAGLGVHWYQQLPGTAPKLLIEGYYNRPSGVPDRFSGSKSGTSASLTITGLYPEDEGDYYCQSYDGTLSALFGGGTKLTVLG	117
2) 320-187 (antibody, human IgG1, name in Kabat numbering, V domains shown, human IgG1, lambda) VH: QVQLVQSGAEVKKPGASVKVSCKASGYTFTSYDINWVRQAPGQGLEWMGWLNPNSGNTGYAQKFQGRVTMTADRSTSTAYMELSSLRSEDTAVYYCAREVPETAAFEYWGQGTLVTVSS VL: QSVLTQPPSVSGAPGQRVTISCTSSSSDIGAGLGVHWYQQLPGTAPKLLIEGYYNRPSGVPDRFSGSKSGTSASLTITGLDPEDEGDYYCQSYDGTLSALFGGGTKLTVLG	112

Shift focus to the following entry.
Memo: 320-184 (antibody, human IgG1, name in Kabat numbering, V domains shown, human IgG1, lambda) VH: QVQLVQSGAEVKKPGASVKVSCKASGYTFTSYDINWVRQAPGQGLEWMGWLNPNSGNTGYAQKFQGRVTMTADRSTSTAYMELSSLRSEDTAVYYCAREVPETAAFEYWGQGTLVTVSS VL: QSVLTQPPSVSGAPGQRVTISCTSSSSDIGAGLGVHWYQQLPGTAPKLLIEGYYNRPSGVPDRFSGSKSGTSASLTITGLAPEDEGDYYCQSYDGTLSALFGGGTKLTVLG , reported TL1A Binding Level (Late): 118
